test system: Pediococcus; test: Antibacterial activity against sensitive Pediococcus cerevisiae ATCC 808 assessed as reduction in growth in presence of 0.001 ug/ml folinic acid; type: functional
The source made the active and inactive calls. No cut-off for these calls is given here.
In this exercise, the only acceptable responses are 1.0 (active), 0.0 (inactive)

Example entries and their recorded answers appear below.
{"columns": ["compound", "discrete.label"],
 "data": [
  ["Clc1ccc(Nc2nc(NCCCN3CCCC3)c3ccccc3n2)cc1Cl", 1.0],
  ["COc1cc(NC(C)CCCN)c2ncccc2c1 (stereo not drawn)", 1.0],
  ["CCCCN(CCCC)CC(O)c1cc(-c2ccc(Cl)c(Cl)c2)nc2c(Cl)cc(Cl)cc12 (stereo not drawn)", 1.0]
]}

Hi, do you know how O=C1C(O)=C(CCCCCCCCC2CCCCC2)C(=O)c2ccccc21 came out in this test?
1.0

###

test system: Pediococcus; test: Fold increase in resistance, ratio of IC50 for chlorguanide triazine-resistant Pediococcus cerevisiae ATCC 808 to IC50 for sensitive Pediococcus cerevisiae ATCC 808; type: functional
parameter.measured: Ratio IC50
A bare number is all that is needed in reply.

Reported Ratio IC50 for CC(C)c1nc2nc(N)nc(N)c2nc1C(C)C was 7

Item: CCCCN(CCCC)CC(O)c1cc(-c2ccc(Cl)c(Cl)c2)nc2c(Cl)cc(Cl)cc12 (stereo not drawn) | Ratio IC50: 1

Looking up CC1(C)N=C(N)N=C(N)N1OCCCOc1cc(Cl)c(Cl)cc1Cl , I see its Ratio IC50 listed as 267

Noted for COc1cc(NC(C)CCCN)c2ncccc2c1 (stereo not drawn) : its Ratio IC50 reads 1

###

tested on: Escherichia coli; assay: Antibacterial activity against sensitive Escherichia coli ATCC 10536 assessed as reduction in growth in presence of p-aminobenzoic acid; type: functional, organism-based
Activity calls are given as the source filed them. The rule behind the calls is not given here.
// allowed return values: active, inactive

See these solved cases before continuing.
{"columns": ["compound", "study.system", "discrete.label"],
 "data": [
  ["CC1(C)N=C(N)N=C(N)N1OCc1ccc(Cl)c(Cl)c1", "Escherichia coli", "active"],
  ["Nc1ccc(S(=O)(=O)Nc2nccs2)cc1", "Escherichia coli", "inactive"],
  ["CCc1ccc(N2C(N)=NC(N)=NC2(C)C)cc1", "Escherichia coli", "active"],
  ["CC1(C)N=C(N)N=C(N)N1OCCCOc1cc(Cl)c(Cl)cc1Cl", "Escherichia coli", "active"],
  ["CCN1CCCC(Nc2cc(C)nc(NC(=N)Nc3ccc(Cl)c(Cl)c3)n2)C1 (stereo not given)", "Escherichia coli", "active"]
]}

Assay outcome for Nc1ncc(Cc2ccc3c(c2)OCO3)c(N)n1 : what was it?
active

Outcome logged for Nc1nc(N)c2cc(S(=O)(=O)c3ccc4ccccc4c3)ccc2n1 in this assay:
active

###

system: Enterococcus faecium; test: Antibacterial activity against chlorguanide triazine-resistant Streptococcus faecium ATCC 8043 assessed as reduction in growth; format: functional, organism-based
pIC50: −log10 of the molar value.
Consider the following molecules and their measured pIC50 readings.

{"columns": ["molecule", "pIC50"],
 "data": [
  ["COc1nccnc1NS(=O)(=O)c1ccc(N)cc1 [SULFALENE]", "< 2.44"]
]}

Pending molecule:
GET /value?item= Nc1ccc(S(=O)(=O)Nc2nccs2)cc1 [SULFATHIAZOLE] &field=pIC50 returns < 2.41

###

tested on: Pediococcus; test: Antibacterial activity against sensitive Pediococcus cerevisiae ATCC 808 assessed as reduction in growth in presence of 0.001 ug/ml folinic acid; type: functional
Calls of active or inactive are those of the source. The rule behind the calls is not given here.
A correct response names exactly one class from yes (1) = active, no (0) = inactive

Observe how each entry below is paired with its result.
{"columns": ["compound", "study.system", "discrete.label"],
 "data": [
  ["COc1cc(Cc2cnc(N)nc2N)cc(OC)c1OC [TRIMETHOPRIM]", "Pediococcus", "no (0)"],
  ["CCN1CCCC(Nc2cc(C)nc(NC(=N)Nc3ccc(Cl)c(Cl)c3)n2)C1 (centres undefined)", "Pediococcus", "yes (1)"],
  ["CC(C)c1nc2nc(N)nc(N)c2nc1C(C)C", "Pediococcus", "no (0)"],
  ["CC1(C)N=C(N)N=C(N)N1OCc1ccc(Cl)c(Cl)c1 [CLOCIGUANIL]", "Pediococcus", "no (0)"],
  ["C=C[C@H]1CN2CC[C@H]1C[C@H]2[C@H](O)c1ccnc2ccc(OC)cc12 [QUININE]", "Pediococcus", "yes (1)"],
  ["Nc1nc(N)c2cc(S(=O)(=O)c3ccc4ccccc4c3)ccc2n1", "Pediococcus", "no (0)"],
  ["ClC(Cl)(Cl)c1ccc(C(Cl)(Cl)Cl)cc1", "Pediococcus", "yes (1)"],
  ["CCc1nc(N)nc(N)c1-c1ccc(Cl)cc1 [PYRIMETHAMINE]", "Pediococcus", "no (0)"]
]}

What outcome does the record of this test show for Nc1nc(N)c2cc(Oc3cc(Cl)cc(Cl)c3)ccc2n1 ?
no (0)

Outcome logged for CC(CNc1nc(Nc2ccc(Cl)c(Cl)c2)nc(C(Cl)(Cl)Cl)n1)N(C)C (centres undefined) in this assay:
yes (1)

Please share the test call associated with CN1CCCCC1CNc1nc(-c2ccc(Cl)c(Cl)c2)nc(C(Cl)(Cl)Cl)n1 (centres undefined) .
yes (1)

Recorded call for CCN(CC)CCNc1nc(Nc2ccc(Cl)c(Cl)c2)nc2ccccc12 ?
yes (1)

How was CCN(CC)CCNc1nc(C(Cl)(Cl)Cl)nc2cc(Cl)ccc12 classified in this test?
yes (1)

Write down the call the test reported for this compound. Item: Nc1nc(N)c2cc(Sc3ccc(Cl)cc3)ccc2n1
no (0)

For this compound, state the assay outcome: CCc1ccc(N2C(N)=NC(N)=NC2(C)C)cc1
no (0)

I would be grateful if you could indicate the recorded call for N=C(N)NC(=O)Nc1ccc([N+](=O)[O-])cc1 .
yes (1)

Please let me know the test result on file for Nc1nc(N)c2cc(SCc3ccc(Cl)cc3)ccc2n1 .
no (0)

Hey, what did the test say about CC1(C)N=C(N)N=C(N)N1OCCCOc1cc(Cl)c(Cl)cc1Cl ?
no (0)

Call for entry Cc1ccccc1-c1nc2c(N)nc(N)nc2nc1N :
no (0)

###

test system: Pediococcus; experiment: Fold increase in resistance, ratio of IC50 for chlorguanide triazine-resistant Pediococcus cerevisiae ATCC 808 to IC50 for sensitive Pediococcus cerevisiae ATCC 808; format: functional
The recorded Ratio IC50 of each item maps onto one of these classes: one = under 1, two = from 1 up to 6, three = 6 and over

Below are worked cases with known answers.
{"columns": ["compound", "discrete.label"],
 "data": [
  ["CCc1ccc(N2C(N)=NC(N)=NC2(C)C)cc1", "three"],
  ["CC1(C)N=C(N)N=C(N)N1c1ccc(Cl)cc1 [CYCLOGUANIL]", "three"],
  ["Nc1nc(N)c2cc(SCc3ccc(Cl)cc3)ccc2n1", "three"]
]}

Category of CC1(C)N=C(N)N=C(N)N1OCc1ccc(Cl)c(Cl)c1 [CLOCIGUANIL] :
three

Which band does CN(Cc1cnc2nc(N)nc(N)c2n1)c1ccc(C(=O)N[C@@H](CCC(=O)O)C(=O)O)cc1 [METHOTREXATE] fall in?
two

Into which bin does this compound go? Nc1nc(N)c2cc(S(=O)(=O)c3ccc4ccccc4c3)ccc2n1
three

Band for Cc1ccccc1-c1nc2c(N)nc(N)nc2nc1N ?
two

Into which category would you place Clc1ccc(Nc2nc(NCCCN3CCCC3)c3ccccc3n2)cc1Cl ?
two

Which Ratio IC50 category applies to C/C(=C\C(=N\NC(=N)N)c1ccccc1)c1ccccc1 here?
one

# classify by Ratio IC50 band: O=C1C(O)=C(CCCCCCCCC2CCCCC2)C(=O)c2ccccc21 [MENOCTONE]
one

Category of Nc1nc(N)c2c(ccc3cc(Br)ccc32)n1 :
three

Place this compound in its band: ClC(Cl)(Cl)c1ccc(C(Cl)(Cl)Cl)cc1
two

Quick check: band for Nc1nc(N)c2cc(NCc3ccc(Cl)c(Cl)c3)ccc2n1
two

###

test system: Escherichia coli; experiment: Antibacterial activity against sensitive Escherichia coli ATCC 10536 assessed as reduction in growth in presence of p-aminobenzoic acid; format: functional, organism-based
Activity calls are given as the source filed them. The calls are words filed in the database; no cut-off is given here.
The reply should name one outcome from 1.0 = active, 0.0 = inactive

Solved cases below.
{"columns": ["smiles.string", "study.system", "discrete.label"],
 "data": [
  ["COc1nccnc1NS(=O)(=O)c1ccc(N)cc1", "Escherichia coli", 0.0],
  ["Clc1ccc(Nc2nc(NCCCN3CCCC3)c3ccccc3n2)cc1Cl", "Escherichia coli", 1.0],
  ["Nc1ccc(S(=O)(=O)c2ccc(N)cc2)cc1", "Escherichia coli", 0.0]
]}

// param item: Nc1nc(N)c2cc(SCc3ccc(Cl)cc3)ccc2n1 ; yields the recorded call
1.0

Could you please tell me the result logged for Nc1nc(N)c2cc(NCc3ccc(Cl)c(Cl)c3)ccc2n1 in this assay?
1.0

Please share the test call associated with CCN(CC)CCNc1nc(C(Cl)(Cl)Cl)nc2cc(Cl)ccc12 .
1.0

Entry C/C(=C\C(=N\NC(=N)N)c1ccccc1)c1ccccc1 : call = ?
1.0

Test call for this compound, please: Nc1nc(N)c2cc(Oc3cc(Cl)cc(Cl)c3)ccc2n1
1.0
